Exercise: state measured growth for each of the compounds provided.
- System: Klebsiella aerogenes DSM 30053
- assay_protocol: growth (OD595) fold change vs plate DMSO controls (fold change (ratio)); higher = more growth
- measurement_conditions: incubation time: 27 h, anaerobic, 37 °C
Structures can show the parent of a compound that is named as a salt.
Respond using a number only.

In: Under Klebsiella aerogenes DSM 30053: growth value of COC1=C(OC)C(=O)C(CCCCCCCCCCO)=C(C)C1=O [Idebenone] (20 µM) ?
Out: 1.01

In: For Klebsiella aerogenes DSM 30053, provide growth of COc1cc(C)c(/C=C/C(C)=C/C=C/C(C)=C/C(=O)O)c(C)c1C [Acitretin] (20 µM) please.
Out: 1.02

In: I'm curious: which growth was measured for COc1ccc2c(c1)N(C[C@H](C)CN(C)C)c1ccccc1S2 [Methotrimeprazine maleate salt] (20 µM) tested on Klebsiella aerogenes DSM 30053?
Out: 1

In: Request body: readout growth, system Klebsiella aerogenes DSM 30053, query NC(=O)N/N=C/c1ccc([N+](=O)[O-])o1 [Nitrofural] (20 µM) . Return the value.
Out: 0.973
